Each recorded value in this set is attributed to paper PMC9386001.

Target: UGT2B7 (Homo sapiens)
Sequence (P16662 24-529): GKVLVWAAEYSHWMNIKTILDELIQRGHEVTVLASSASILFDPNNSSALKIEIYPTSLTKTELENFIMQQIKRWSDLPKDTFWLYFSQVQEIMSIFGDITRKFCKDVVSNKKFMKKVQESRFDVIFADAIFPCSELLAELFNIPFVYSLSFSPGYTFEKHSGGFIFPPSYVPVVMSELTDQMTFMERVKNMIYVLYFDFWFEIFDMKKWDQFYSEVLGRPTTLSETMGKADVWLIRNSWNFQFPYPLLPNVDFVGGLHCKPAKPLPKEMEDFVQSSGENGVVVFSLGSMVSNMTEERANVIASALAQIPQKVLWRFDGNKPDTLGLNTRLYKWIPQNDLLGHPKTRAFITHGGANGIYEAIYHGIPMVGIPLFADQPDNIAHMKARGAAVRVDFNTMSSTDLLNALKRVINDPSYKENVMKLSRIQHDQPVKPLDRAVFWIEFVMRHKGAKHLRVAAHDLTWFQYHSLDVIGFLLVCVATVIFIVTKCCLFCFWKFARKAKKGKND
Test: Inhibition of UGT2B7 (zidovudine-N-glucuronidation)
Conditions: UGT2B7; best model by smallest AIC and SC
metric_name: Inhibitory type

Notebook: `CC(C)=CCc1cc2c(cc1O)O[C@H](c1ccc(O)cc1)CC2=O` , Inhibitory type read as Mixed type

Notebook: `CC(C)=CCc1c(O)ccc(C(=O)/C=C/c2ccc(O)cc2)c1O` , Inhibitory type read as Competitive

Notebook: `CC(C)=CCc1c(O)ccc2c1O[C@H](c1ccc(O)cc1)CC2=O` , Inhibitory type read as Competitive

Notebook: `CC(C)=CCc1cc(-c2coc3cc(O)ccc3c2=O)ccc1O` , Inhibitory type read as Mixed type

---

Assay: Estrogen glucuronidation kinetics by HIM
Type: in vitro ADME, human
Details: human, human intestine microsomes, pH 7.4, HIM; 16-O-glucuronide formation; read-out: CL int or CL max
metric_name: microsomal CLint (µL/min/mg)
Give the quantity in µL/min/mg, number only.

Notebook: `C[C@]12CC[C@@H]3c4ccc(O)cc4CC[C@H]3[C@@H]1C[C@@H](O)[C@@H]2O` , microsomal CLint read as 109

---

Biological target: UGT1A1 (Homo sapiens, UniProt P22309)
Sequence (P22309 26-533): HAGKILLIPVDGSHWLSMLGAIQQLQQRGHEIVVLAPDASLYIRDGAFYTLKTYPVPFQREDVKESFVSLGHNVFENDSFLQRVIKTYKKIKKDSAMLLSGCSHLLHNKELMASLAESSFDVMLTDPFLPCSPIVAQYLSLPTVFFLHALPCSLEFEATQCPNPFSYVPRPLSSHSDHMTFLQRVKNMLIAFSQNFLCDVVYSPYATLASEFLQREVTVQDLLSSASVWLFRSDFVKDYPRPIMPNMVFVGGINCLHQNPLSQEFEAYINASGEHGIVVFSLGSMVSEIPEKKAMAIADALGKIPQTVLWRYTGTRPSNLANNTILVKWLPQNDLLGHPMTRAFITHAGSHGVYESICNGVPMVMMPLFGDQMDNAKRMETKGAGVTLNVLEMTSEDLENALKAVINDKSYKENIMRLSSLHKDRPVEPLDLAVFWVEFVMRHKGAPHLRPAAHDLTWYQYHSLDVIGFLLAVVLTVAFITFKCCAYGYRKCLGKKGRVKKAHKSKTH
pIC50: −log10 of the molar value.
metric_name: pIC50

Notebook: `CC(C)=CCc1c(O)ccc2c1O[C@H](c1ccc(O)cc1)CC2=O` , pIC50 read as 5.76

P. CC(C)=CCc1cc2c(cc1O)O[C@H](c1ccc(O)cc1)CC2=O
Q. COc1ccc(-c2oc3c(CC=C(C)C)c(O[C@@H]4O[C@H](CO)[C@@H](O)[C@H](O)[C@H]4O)cc(O)c3c(=O)c2O)cc1 [Icariside I, icariside I]
R. COc1ccc(-c2oc3c(CC=C(C)C)c(O)cc(O)c3c(=O)c2O)cc1
Query: List the 3 entries from lowest pIC50 to highest pIC50 value. Respond with the label ranking, as requested.
Reply: Q, R, P

---

Target: UGT2B7 (Homo sapiens)
Assay: Inhibition of UGT2B7 (zidovudine-N-glucuronidation)
Conditions: human, UGT2B7 enzyme (optimized UGT2B7 incubation system), probe zidovudine (AZT)
metric_name: activity at 10 µM (%)

// below: answered molecules
Observed activity at 10 µM, UGT2B7 (Homo sapiens), `C=C[C@@](C)(/C=C/c1ccc(O)cc1)CCC=C(C)C` : 35.5

Observed activity at 10 µM, UGT2B7 (Homo sapiens), `CC(C)=CCC/C(C)=C/Cc1cc(-c2coc3cc(O)ccc3c2=O)ccc1O` : 0

A. CC(C)=CCc1c(O)ccc(C(=O)/C=C/c2ccc(O)cc2)c1O
B. CC(C)=CCc1cc2c(cc1O)O[C@H](c1ccc(O)cc1)CC2=O
Query: Endpoint returns the identifier whose activity at 10 µM is numerically larger, either A or B . Answer = label.
Reply: B
(B: 32.5%, A: 0%)
